Data credit: patent US7015325B2

Molecular target: human tryptase
Assay: Inhibition of human tryptase (apparent dissociation constant, chromogenic substrate tos-Gly-Pro-arg-pNA)
Conditions: apparent dissociation constant in presence of substrate; heparin 0.1–50 μg/ml; equilibrium conditions; read-out: Kiapp
Description: The documented pathophysiological effects of mast cell tryptase are caused directly by the enzymatic activity of the protease. Accordingly, they are reduced or blocked by inhibitors which inhibit the enzymatic activity of the tryptase. […] This Ki value can be determined via the effect of the inhibitor on the tryptase-induced cleavage of a chromogenic peptide-p-nitroanilide substrate or a fluorogenic peptide-aminomethylcoumarin substrate. […]
Structures can show the parent of a compound that is named as a salt.
QUANTITY: Ki (nM)
Numbers only, in nM.

Example compounds with recorded Ki:
COMPOUND	TESTED_ON	DISPLAY_UNIT	Ki
NCc1cccc(CNC(=O)N2CCN(C(=O)OCCCCC#CC#CCCCCOC(=O)N3CCN(C(=O)NCc4cccc(CN)c4)CC3)CC2)c1 [Compound 6, dihydrochloride]	human tryptase	nM	1.4
NCc1cccc(CNC(=O)N2CCN(C(=O)OCCOCC#CCOCCOC(=O)N3CCN(C(=O)NCc4cccc(CN)c4)CC3)CC2)c1 [Compound 3, dihydrochloride]	human tryptase	nM	8

# next compound below
Q: Input NCc1ccc(CNC(=O)N2CCN(C(=O)OCC#CC#CCOC(=O)N3CCN(C(=O)NCc4ccc(CN)cc4)CC3)CC2)cc1 [Compound 4, dihydrochloride] , output reported Ki.
Ans: 0.25
